Reported Percent Effect is given for each of the following molecules.
# TARGET: Chromo domain-containing protein 1 (Saccharomyces cerevisiae (strain ATCC 204508 / S288c) (Baker's yeast))
# EXPERIMENTAL PROTOCOL: ScCHD-1 Enzyme Inhibition Assay
# Format: functional
# Design: scale not given: in the data most compounds retested in dose-response had high values
# PROTOCOL CONDITIONS: 30 µM
Number only, in %; omit the unit.

CCN(CC)c1ccc(C(=O)NCc2cccnc2-n2cncn2)cn1 :: -5.91
CC(c1nc(C(C)(C)C)no1)N1CCN(CC(=O)N2CCOCC2)CC1 (stereo unspecified) :: 1.93
Cc1cc(NC(=O)CCc2ccsc2)n(C)n1 :: -4.62
O=C(c1cscn1)N1C[C@@H]2C[C@@H](c3nnc(C4CC4)o3)O[C@@H]2C1 :: -7.72
Cc1nc2ccccc2c(=O)n1CCC(=O)N1CCSCC1 :: -13.3

Kindly consider the entry below.
Any idea what its Percent Effect is? The molecule is c1cnnc(N2CCCC(NCc3nc(C4CC4)no3)C2)c1 (stereo unspecified)
-2.42

The values you see were collected from ChEMBL document CHEMBL3988442.
